B1: CPEB3 Ribozyme (parent)
chain: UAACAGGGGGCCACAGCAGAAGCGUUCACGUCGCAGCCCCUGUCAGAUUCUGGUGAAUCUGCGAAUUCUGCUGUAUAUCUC

variants of: B1; assay: self-cleavage, relative activity (ratio to wild type); higher = more cleavage; in vitro, sequencing
Would you mind labelling by self-cleavage? At or over 0.4 is label 1, under is label 0.

U26G U78C = label 0
U69C U80G = label 1
A21G U25G = label 0
U31A U76C = label 1
A13U G30A = label 0
A28G U48A = label 0

Given the entry U48A U72C , answer whether its self-cleavage meets or surpasses 0.4.
label 1

Given the entry A15U A35G , answer whether its self-cleavage meets or surpasses 0.4.
label 1
